Target: HIV-1 reverse transcriptase (HIV-1, UniProt P04585;P04585 P04585:588-1147,P04585:588-1027)
Experiment: inhibition; Ki' for RNA-dependent DNA polymerase activity; 37 C, 40 nM primer:template
Details: tags: overexpressed in E. coli, purified per Davies et al. 1991; label: 5'-32P; long interrupted helix with AA/CG internal loop
measurement.type: Ki (pM)
// units = pM; emit number, no label

// recorded Ki for RT1 (ssDNA) DNA: ATCCGCCTGATTAGCGATACTCAGAAGGATAAACTGTCCAGAACTTGGAATATATCACTTGAGCAAAATCACCTGCAGGGG : 300

Where these numbers come from: patent US5503978
